Readings of pIC50 for the listed compounds
- TEST_SYSTEM: Aurora B (Homo sapiens)
- Construct: cell lysates from Jurkat cells (ATCC TIB-152) used; endogenous in cells
- PROTOCOL_DESCRIPTION: Kinobeads assay, Aurora B
- CONDITION_CONTEXT: lysate of pervanadate-treated Jurkat cells, read-out: Inhibition values (IC50) Aur B
pIC50: −log10 of the molar value.
PROPERTY_LABEL: pIC50

test_smiles=Cn1cc(Nc2ncc3cnn(Cc4cccc(NC5COC5)c4)c3n2)cn1 property_label=pIC50 meas_value="6.00 to 7.00"
test_smiles=Cn1cc(Nc2ncc3cnn(Cc4cc(F)cc(N5CC6(COC6)C5)c4)c3n2)cn1 property_label=pIC50 meas_value="5.00 to 6.00"
test_smiles=C[C@@H]1COCCN1c1cccc(Cn2ncc3cnc(Nc4cnn(C)c4)nc32)n1 property_label=pIC50 meas_value="5.00 to 6.00"
test_smiles=FC(F)Cn1cc(Nc2ncc3cnn(Cc4cccc(N5CCOCC5)c4)c3n2)cn1 property_label=pIC50 meas_value="5.00 to 6.00"

----------
- TEST_SYSTEM: Aurora B (Homo sapiens, UniProt Q96GD4)
- Construct: cell lysates from Jurkat cells (ATCC TIB-152) used; endogenous in cells; host or cells: Jurkat cells (ATCC TIB-152), treated with pervanadate
- Sequence (Q96GD4 whole entry): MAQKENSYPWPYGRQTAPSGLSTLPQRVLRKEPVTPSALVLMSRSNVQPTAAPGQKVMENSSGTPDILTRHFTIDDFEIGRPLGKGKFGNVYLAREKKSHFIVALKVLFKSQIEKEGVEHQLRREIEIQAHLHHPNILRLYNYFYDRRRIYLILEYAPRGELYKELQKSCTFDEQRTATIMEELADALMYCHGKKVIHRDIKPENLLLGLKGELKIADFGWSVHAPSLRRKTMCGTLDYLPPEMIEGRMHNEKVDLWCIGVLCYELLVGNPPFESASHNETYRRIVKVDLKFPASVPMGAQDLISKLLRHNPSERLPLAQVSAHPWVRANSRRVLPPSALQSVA
- PROTOCOL_DESCRIPTION: Kinobeads assay, Aurora B
- Format: binding
PROPERTY_LABEL: JAK3/AurB Fold Selectivity

molecule=Cn1cc(Nc2ncc3cnn(Cc4cccc(N5CCC(=O)CC5)c4)c3n2)cn1 test_system="Aurora B (Homo sapiens, UniProt Q96GD4)" property_label="JAK3/AurB Fold Selectivity" meas_value="10-50 Fold"
molecule=O=C(Cn1cc(Nc2ncc3cnn(Cc4cc(F)cc(N5CCOCC5=O)c4)c3n2)cn1)N1CCNCC1 test_system="Aurora B (Homo sapiens, UniProt Q96GD4)" property_label="JAK3/AurB Fold Selectivity" meas_value="10-50 Fold"
molecule=Cn1cc(Nc2ncc3cnn(Cc4cc(F)cc(N5CCNCC5=O)c4)c3n2)cn1 test_system="Aurora B (Homo sapiens, UniProt Q96GD4)" property_label="JAK3/AurB Fold Selectivity" meas_value="10-50 Fold"
molecule=OCCn1cc(Nc2ncc3cnn(Cc4c(F)ccc(N5CCOCC5)c4F)c3n2)cn1 test_system="Aurora B (Homo sapiens, UniProt Q96GD4)" property_label="JAK3/AurB Fold Selectivity" meas_value="3-10 Fold"
molecule="c1cc(Cn2ncc3cnc(Nc4cnn(CC5CCNC5)c4)nc32)cc(N2CCOCC2)c1 (stereo not shown)" test_system="Aurora B (Homo sapiens, UniProt Q96GD4)" property_label="JAK3/AurB Fold Selectivity" meas_value=">50 Fold"
molecule=N#CCCn1cc(Nc2ncc3cnn(Cc4cc(F)cc(N5CCOCC5=O)c4)c3n2)cn1 test_system="Aurora B (Homo sapiens, UniProt Q96GD4)" property_label="JAK3/AurB Fold Selectivity" meas_value="10-50 Fold"
molecule=Cn1cc(Nc2ncc3cnn(Cc4cc(F)cc(C(=O)N5CCOCC5)c4)c3n2)cn1 test_system="Aurora B (Homo sapiens, UniProt Q96GD4)" property_label="JAK3/AurB Fold Selectivity" meas_value=">50 Fold"
molecule=Cn1cc(Nc2ncc3cnn(Cc4cc(F)cc(N5CC6(COC6)C5)c4)c3n2)cn1 test_system="Aurora B (Homo sapiens, UniProt Q96GD4)" property_label="JAK3/AurB Fold Selectivity" meas_value=">50 Fold"
molecule=Cn1cc(Nc2ncc3cnn(Cc4cccc(N5CCOCC5)c4Cl)c3n2)cn1 test_system="Aurora B (Homo sapiens, UniProt Q96GD4)" property_label="JAK3/AurB Fold Selectivity" meas_value="3-10 Fold"
molecule=O=C1CNCCN1c1cc(F)cc(Cn2ncc3cnc(Nc4cnn(CCO)c4)nc32)c1 test_system="Aurora B (Homo sapiens, UniProt Q96GD4)" property_label="JAK3/AurB Fold Selectivity" meas_value="3-10 Fold"

----------
- TEST_SYSTEM: Aurora A (Homo sapiens, UniProt O14965)
- Construct: cell lysates from Jurkat cells (ATCC TIB-152) used; endogenous in cells; host or cells: Jurkat cells (ATCC TIB-152), treated with pervanadate
- Sequence (O14965 whole entry): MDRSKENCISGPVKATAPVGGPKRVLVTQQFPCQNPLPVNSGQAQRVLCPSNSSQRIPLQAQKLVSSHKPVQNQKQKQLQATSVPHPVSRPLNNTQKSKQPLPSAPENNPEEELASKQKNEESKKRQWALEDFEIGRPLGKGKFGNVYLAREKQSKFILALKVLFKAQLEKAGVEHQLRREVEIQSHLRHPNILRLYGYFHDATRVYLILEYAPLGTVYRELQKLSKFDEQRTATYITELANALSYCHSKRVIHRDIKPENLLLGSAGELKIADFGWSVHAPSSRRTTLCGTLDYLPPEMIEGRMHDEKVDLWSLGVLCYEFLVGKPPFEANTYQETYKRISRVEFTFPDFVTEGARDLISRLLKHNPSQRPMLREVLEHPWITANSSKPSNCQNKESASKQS
- PROTOCOL_DESCRIPTION: Kinobeads assay, Aurora A
- Format: binding
PROPERTY_LABEL: JAK3/AurA Fold Selectivity

compound=Cn1cc(Nc2ncc3cnn(Cc4cccc(N5CCOCC5)c4F)c3n2)cn1 meas_value=">50 Fold"
compound=OCCn1cc(Nc2ncc3cnn(Cc4cc(N5CCOCC5)ccc4F)c3n2)cn1 meas_value="10-50 Fold"
compound=Cn1cc(Nc2ncc3cnn(Cc4cccc(N5CC6CCC(C5)O6)c4)c3n2)cn1 meas_value="3-10 Fold"
compound=OCCn1cc(Nc2ncc3cnn(Cc4cc(N5CCOCC5)cc(F)c4F)c3n2)cn1 meas_value=">50 Fold"
compound=Cn1cc(-c2cccc(Cn3ncc4cnc(Nc5cnn(CCO)c5)nc43)c2)cn1 meas_value="10-50 Fold"
compound="O=C1COCCN1c1cc(F)cc(Cn2ncc3cnc(Nc4cnn(CC5CCNC5)c4)nc32)c1 (stereo not drawn)" meas_value="10-50 Fold"
compound=Cn1cc(Nc2ncc3cnn(Cc4cc(N5CCNCC5)cc(F)c4F)c3n2)cn1 meas_value=">50 Fold"
compound=O=C(c1cc(F)c(F)c(Cn2ncc3cnc(Nc4cnn(CCO)c4)nc32)c1F)N1CCOCC1 meas_value="10-50 Fold"
compound=CN(C)CCCn1cc(Nc2ncc3cnn(Cc4cccc(N5CCOCC5=O)c4)c3n2)cn1 meas_value=">50 Fold"
compound=Cn1cc(Nc2ncc3cnn(Cc4c(F)c(F)cc(N5CCOCC5=O)c4F)c3n2)cn1 meas_value=">50 Fold"
compound=CN(C)CCCn1cc(Nc2ncc3cnn(Cc4cccc(N5CCOCC5)c4)c3n2)cn1 meas_value=">50 Fold"
compound=O=C(c1cccc(Cn2ncc3cnc(Nc4cnn(CCO)c4)nc32)c1F)N1CCOCC1 meas_value=">50 Fold"

----------
- TEST_SYSTEM: JAK2 (Homo sapiens, UniProt O60674)
- Construct: endogenous in cells
- Sequence (O60674 whole entry): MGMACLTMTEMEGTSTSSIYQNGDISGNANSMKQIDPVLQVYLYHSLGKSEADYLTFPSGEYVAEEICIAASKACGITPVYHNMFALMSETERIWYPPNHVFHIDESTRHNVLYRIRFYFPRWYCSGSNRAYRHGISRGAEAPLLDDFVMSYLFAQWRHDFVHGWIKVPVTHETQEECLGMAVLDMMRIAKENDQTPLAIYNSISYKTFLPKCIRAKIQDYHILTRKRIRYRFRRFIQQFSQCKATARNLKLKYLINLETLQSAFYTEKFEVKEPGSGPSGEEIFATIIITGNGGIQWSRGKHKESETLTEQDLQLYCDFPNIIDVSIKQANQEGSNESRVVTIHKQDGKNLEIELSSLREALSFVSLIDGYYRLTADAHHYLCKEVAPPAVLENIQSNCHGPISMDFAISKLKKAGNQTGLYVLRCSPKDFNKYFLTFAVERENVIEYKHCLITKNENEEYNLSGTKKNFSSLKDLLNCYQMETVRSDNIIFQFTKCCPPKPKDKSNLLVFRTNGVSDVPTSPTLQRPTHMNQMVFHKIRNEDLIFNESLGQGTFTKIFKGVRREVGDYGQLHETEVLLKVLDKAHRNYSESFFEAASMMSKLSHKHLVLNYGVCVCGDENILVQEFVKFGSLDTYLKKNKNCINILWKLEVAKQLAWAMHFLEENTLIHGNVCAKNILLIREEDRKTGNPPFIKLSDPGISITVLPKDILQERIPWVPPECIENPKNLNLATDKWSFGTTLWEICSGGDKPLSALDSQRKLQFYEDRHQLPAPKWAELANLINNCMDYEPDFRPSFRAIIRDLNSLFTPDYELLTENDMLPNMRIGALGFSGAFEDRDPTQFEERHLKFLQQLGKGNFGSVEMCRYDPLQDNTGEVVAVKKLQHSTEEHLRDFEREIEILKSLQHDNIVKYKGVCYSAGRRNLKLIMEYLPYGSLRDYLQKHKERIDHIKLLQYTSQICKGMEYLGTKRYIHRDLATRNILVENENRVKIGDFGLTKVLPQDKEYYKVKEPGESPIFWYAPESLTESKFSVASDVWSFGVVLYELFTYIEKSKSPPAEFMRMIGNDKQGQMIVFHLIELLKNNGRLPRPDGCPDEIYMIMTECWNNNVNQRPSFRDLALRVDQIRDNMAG
- PROTOCOL_DESCRIPTION: Kinobeads assay, JAK2
- CONDITION_CONTEXT: mixed Molt4/Ramos lysate, read-out: Inhibition values (IC50) JAK2
Readings of IC50 for the listed compounds
PROPERTY_LABEL: IC50

compound=CN(C)CCCn1cc(Nc2ncc3cnn(Cc4c(F)c(F)cc(N5CCOCC5)c4F)c3n2)cn1 test_system="JAK2 (Homo sapiens, UniProt O60674)" meas_value="1 to 10 µM"
compound=OCCn1cc(Nc2ncc3cnn(Cc4cc(N5CCNCC5)cc(F)c4F)c3n2)cn1 test_system="JAK2 (Homo sapiens, UniProt O60674)" meas_value="1 to 10 µM"
compound=Cn1cc(Nc2ncc3cnn(Cc4cccc(N5CCS(=O)(=O)CC5)c4)c3n2)cn1 test_system="JAK2 (Homo sapiens, UniProt O60674)" meas_value="≥ 10 µM"
compound=OCCn1cc(Nc2ncc3cnn(Cc4c(F)c(F)cc(N5CCOCC5)c4F)c3n2)cn1 test_system="JAK2 (Homo sapiens, UniProt O60674)" meas_value="1 to 10 µM"
compound=C[C@@H]1COCCN1c1cccc(Cn2ncc3cnc(Nc4cnn(C)c4)nc32)n1 test_system="JAK2 (Homo sapiens, UniProt O60674)" meas_value="≥ 10 µM"
compound=Cn1cc(Nc2ncc3cnn(Cc4c(F)ccc(N5CCOCC5)c4F)c3n2)cn1 test_system="JAK2 (Homo sapiens, UniProt O60674)" meas_value="≥ 10 µM"
compound=Cn1cc(Nc2ncc3cnn(Cc4cccc(N5CCNCC5=O)c4F)c3n2)cn1 test_system="JAK2 (Homo sapiens, UniProt O60674)" meas_value="1 to 10 µM"
compound=Cn1cc(Nc2ncc3cnn(Cc4cccc(C5CCOCC5)c4)c3n2)cn1 test_system="JAK2 (Homo sapiens, UniProt O60674)" meas_value="≥ 10 µM"
compound=O=C(CCn1cc(Nc2ncc3cnn(Cc4cccc(N5CCOCC5)c4)c3n2)cn1)N1CCCCC1 test_system="JAK2 (Homo sapiens, UniProt O60674)" meas_value="≥ 10 µM"
compound=CNCC1(Cn2cc(Nc3ncc4cnn(Cc5cccc(N6CCOCC6)c5)c4n3)cn2)COC1 test_system="JAK2 (Homo sapiens, UniProt O60674)" meas_value="≥ 10 µM"
compound=Cn1cc(Nc2ncc3cnn(Cc4cccc(N5CCOCC5)n4)c3n2)cn1 test_system="JAK2 (Homo sapiens, UniProt O60674)" meas_value="≥ 10 µM"
compound=O=C1COCCN1c1cc(F)cc(Cn2ncc3cnc(Nc4cnn(C5CCNCC5)c4)nc32)c1 test_system="JAK2 (Homo sapiens, UniProt O60674)" meas_value="0.1 to 1 µM"
compound=Cn1cc(Nc2ncc3cnn(Cc4cccc(N5CCCCC5)c4)c3n2)cn1 test_system="JAK2 (Homo sapiens, UniProt O60674)" meas_value="≥ 10 µM"
compound=Cn1cc(Nc2ncc3cnn(Cc4c(F)c(F)cc(N5CCNCC5)c4F)c3n2)cn1 test_system="JAK2 (Homo sapiens, UniProt O60674)" meas_value="1 to 10 µM"
compound=OCCn1cc(Nc2ncc3cnn(Cc4cc(F)cc(N5CCNCC5)c4F)c3n2)cn1 test_system="JAK2 (Homo sapiens, UniProt O60674)" meas_value="0.1 to 1 µM"
compound="CCOC(=O)C1CCCN(c2cccc(Cn3ncc4cnc(Nc5cnn(C)c5)nc43)c2)C1 (centres unmarked)" test_system="JAK2 (Homo sapiens, UniProt O60674)" meas_value="≥ 10 µM"
compound=O=C1CNCCN1c1cccc(Cn2ncc3cnc(Nc4cnn(CCO)c4)nc32)c1 test_system="JAK2 (Homo sapiens, UniProt O60674)" meas_value="≥ 10 µM"
compound=Cn1cc(Nc2ncc3cnn(Cc4cc(F)cc(N5CCNCC5)c4F)c3n2)cn1 test_system="JAK2 (Homo sapiens, UniProt O60674)" meas_value="0.1 to 1 µM"
compound=FC(F)Cn1cc(Nc2ncc3cnn(Cc4cccc(N5CCOCC5)c4)c3n2)cn1 test_system="JAK2 (Homo sapiens, UniProt O60674)" meas_value="≥ 10 µM"
compound=COC1CCN(c2cccc(Cn3ncc4cnc(Nc5cnn(C)c5)nc43)c2)CC1 test_system="JAK2 (Homo sapiens, UniProt O60674)" meas_value="≥ 10 µM"
